test system: VERO cells; experiment: Cell viability assay (MTT), VERO; format: cell-based, Cercopithecus aethiops; conditions: concentration for 30% proliferation inhibition, 24 h
The entries below are paired with their reported CC30 VERO.

Return reported CC30 VERO. Input compound: C/C(=N\Nc1nc(-c2ccc(I)cc2)cs1)c1ccc(Nc2nc(N)nc(N)n2)cc1
>125.0 µg/mL

Return reported CC30 VERO. Input compound: C/C(=N\Nc1nc(-c2ccc([N+](=O)[O-])cc2)cs1)c1ccc(Nc2nc(N)nc(N)n2)cc1
>125.0 µg/mL

Return reported CC30 VERO. Input compound: C/C(=N\Nc1nc(-c2ccccc2)cs1)c1ccc(Nc2nc(N)nc(N)n2)cc1
>125.0 µg/mL

Return reported CC30 VERO. Input compound: C/C(=N\Nc1nc(-c2ccc(Br)cc2)cs1)c1ccc(Nc2nc(N)nc(N)n2)cc1
>125.0 µg/mL

Return reported CC30 VERO. Input compound: C/C(=N\Nc1nc(-c2ccc(NS(C)(=O)=O)cc2)cs1)c1ccc(Nc2nc(N)nc(N)n2)cc1
>125.0 µg/mL
